Entries and their IC50 values follow.
System tested: CDK7/cyclin H (Homo sapiens)
Sequence (P50613 whole entry): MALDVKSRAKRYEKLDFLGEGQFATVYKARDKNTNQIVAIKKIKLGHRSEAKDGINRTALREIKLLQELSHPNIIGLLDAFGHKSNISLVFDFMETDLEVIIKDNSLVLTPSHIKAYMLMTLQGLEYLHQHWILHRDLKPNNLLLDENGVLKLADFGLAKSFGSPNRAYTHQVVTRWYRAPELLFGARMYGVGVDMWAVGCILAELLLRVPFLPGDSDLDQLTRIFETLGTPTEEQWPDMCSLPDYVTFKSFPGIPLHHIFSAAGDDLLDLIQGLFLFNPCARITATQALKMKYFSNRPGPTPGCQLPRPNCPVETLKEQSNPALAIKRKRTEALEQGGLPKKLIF
Sequence (P51946 whole entry partner): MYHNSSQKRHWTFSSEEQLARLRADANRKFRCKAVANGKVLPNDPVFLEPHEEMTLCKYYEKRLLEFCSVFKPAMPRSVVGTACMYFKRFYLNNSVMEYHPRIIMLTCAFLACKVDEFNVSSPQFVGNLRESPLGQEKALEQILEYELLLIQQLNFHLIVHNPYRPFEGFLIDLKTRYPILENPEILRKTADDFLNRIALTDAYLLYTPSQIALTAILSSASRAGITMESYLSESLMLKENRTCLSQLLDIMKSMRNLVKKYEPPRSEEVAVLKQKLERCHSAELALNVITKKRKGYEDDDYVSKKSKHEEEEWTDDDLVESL
Sequence (P51948 whole entry partner): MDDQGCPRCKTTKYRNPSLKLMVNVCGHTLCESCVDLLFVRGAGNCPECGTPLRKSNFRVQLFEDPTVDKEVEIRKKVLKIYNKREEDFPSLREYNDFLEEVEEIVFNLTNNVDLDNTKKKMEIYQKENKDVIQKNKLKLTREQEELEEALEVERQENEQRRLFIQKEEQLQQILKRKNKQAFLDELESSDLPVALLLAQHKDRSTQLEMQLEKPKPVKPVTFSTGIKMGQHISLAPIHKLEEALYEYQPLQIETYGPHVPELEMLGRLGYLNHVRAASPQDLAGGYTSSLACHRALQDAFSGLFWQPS
Experiment notes: KinaseProfile radiometric protein kinase assay, CDK7/cyclin H

The cases that follow already have their IC50 on record.
Compound	System tested	Observation type	Recorded result
CC(=O)c1c(C)c2cnc(Nc3ccc(N4CCN(S(=O)(=O)NCC(C)CN)CC4)cn3)nc2n(C2CCCC2)c1=O (stereo not drawn)	CDK7/cyclin H (Homo sapiens)	IC50	> 10 µM
CC(=O)c1c(C)c2cnc(Nc3ccc(N4CCN(S(=O)(=O)NCC(C)N)CC4)cn3)nc2n(C2CCCC2)c1=O (stereo not drawn)	CDK7/cyclin H (Homo sapiens)	IC50	> 10 µM
CC(=O)c1c(C)c2c(n(C3CCCC3)c1=O)=NC(Nc1ccc(N3CCN(S(=O)(=O)NCCN)CC3)cn1)NC=2 (stereo not drawn)	CDK7/cyclin H (Homo sapiens)	IC50	> 10 µM
CC(=O)c1c(C)c2cnc(Nc3ccc(N4CCN(S(=O)(=O)NCC(C)(C)N)CC4)cn3)nc2n(C2CCCC2)c1=O	CDK7/cyclin H (Homo sapiens)	IC50	> 3 µM
CC(=O)c1c(C)c2cnc(Nc3ccc(N4CCN(S(=O)(=O)NCC(C)(C)CN)CC4)cn3)nc2n(C2CCCC2)c1=O	CDK7/cyclin H (Homo sapiens)	IC50	> 3 µM

In: Returns the measured IC50 for the input compound. Input: CC(=O)c1c(C)c2cnc(Nc3ccc(N4CCN(S(=O)(=O)NCCCN)CC4)cn3)nc2n(C2CCCC2)c1=O
Out: > 3 µM
